Numbers sourced from ChEMBL document CHEMBL1909046.

Assay: DRUGMATRIX: Leukotriene, BLT (LTB4) radioligand binding (ligand: [3H]LTB4)
Assay type: cell membranes, Membrane
Conditions: u-937; Not Active = under 50% inhibition at 10 µM
Property Measured: IC50

Sample records with IC50:
{"Compound": "CCN(CC)CCNC(=O)c1cc(S(C)(=O)=O)ccc1OC [TIAPRIDE]", "Experimental Result": "Not Active"}
{"Compound": "N#Cc1ccc(C(c2ccc(C#N)cc2)n2cncn2)cc1 [LETROZOLE]", "Experimental Result": "Not Active"}
{"Compound": "O=c1cc(N2CCOCC2)oc2c(-c3ccccc3)cccc12 [LY-294002]", "Experimental Result": "Not Active"}
{"Compound": "CC(C)NCC(O)COc1cccc2[nH]ccc12 (stereo not drawn) [PINDOLOL]", "Experimental Result": "Not Active"}

Dear colleague, could you send me IC50 for each of the items below? Thanks.
1. NC(=O)N1C(=O)/C(=C(\O)c2cccs2)c2cc(Cl)ccc21 [TENIDAP]
2. COC1=C(OC)C(=O)C(CCCCCCCCCCO)=C(C)C1=O [IDEBENONE]

Not Active
Not Active

Parameters: items (list). Returns: IC50 for each item.
1. COc1cc(N)c(Cl)cc1C(=O)NC1CCN(CCCOc2ccc(F)cc2)CC1OC (stereo not drawn) [CISAPRIDE]
2. O=C1O[C@H]([C@@H](O)CO)C(O)=C1O [ASCORBIC ACID]
3. CC[C@@H](C(=O)[C@@H](C)[C@@H](O)[C@H](C)[C@@H]1O[C@@H]([C@@H](CC)C(=O)O)CC[C@@H]1C)[C@H]1O[C@]2(C=C[C@@H](O)[C@]3(CC[C@@](C)([C@H]4CC[C@](O)(CC)[C@H](C)O4)O3)O2)[C@H](C)C[C@@H]1C [SALINOMYCIN]

Not Active
Not Active
Not Active

For every item below, please supply its IC50.
1. CC(C)c1cccc(C(C)C)c1O [PROPOFOL]
2. CCn1cc(C(=O)O)c(=O)c2cnc(N3CCCC3)nc21 [PIROMIDIC ACID]
3. CC(C(=O)O)c1ccc2oc(-c3ccc(Cl)cc3)nc2c1 (stereo not drawn) [BENOXAPROFEN]
4. CN(C)CC[C@@H](c1ccc(Cl)cc1)c1ccccn1 [DEXCHLORPHENIRAMINE]
5. COc1ccc2cc3[n+](cc2c1OC)CCc1cc2c(cc1-3)OCO2.[Cl-] [BERBERINE CHLORIDE]

["Not Active", "Not Active", "Not Active", "Not Active", "Not Active"]

* * *

Biological target: Neuropeptide Y receptor type 2 (Homo sapiens, UniProt P49146); note: in other assays of this panel Not Active means under 50% inhibition at 10 µM
Sequence (P49146 whole entry): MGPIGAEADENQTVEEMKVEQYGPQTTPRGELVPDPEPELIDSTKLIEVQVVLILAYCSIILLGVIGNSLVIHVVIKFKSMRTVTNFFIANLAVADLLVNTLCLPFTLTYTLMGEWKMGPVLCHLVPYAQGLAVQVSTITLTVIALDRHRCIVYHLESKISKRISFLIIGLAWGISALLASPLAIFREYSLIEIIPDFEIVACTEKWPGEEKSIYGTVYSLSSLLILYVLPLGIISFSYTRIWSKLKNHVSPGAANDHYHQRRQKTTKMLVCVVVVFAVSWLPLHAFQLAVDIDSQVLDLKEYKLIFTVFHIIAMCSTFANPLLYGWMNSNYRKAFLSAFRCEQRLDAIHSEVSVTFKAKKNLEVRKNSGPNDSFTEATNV
Type: cell membranes, KAN-TS, Membrane
Details: kan-ts
Property Measured: IC50

# example entries with known answers
{"Compound": "O=C1Nc2ccc(Cl)cc2C(c2ccccc2Cl)=NC1O (centres undefined)", "IC50": "Not Active"}
{"Compound": "COc1ccc2cc3[n+](cc2c1OC)CCc1cc2c(cc1-3)OCO2.[Cl-] [BERBERINE CHLORIDE]", "IC50": "Not Active"}
{"Compound": "N=C(N)NC(=O)Cc1c(Cl)cccc1Cl", "IC50": "Not Active"}
{"Compound": "CCC1(CCC(C)C)C(=O)NC(=O)NC1=O", "IC50": "Not Active"}
{"Compound": "CC(C(=O)O)c1cccc(Oc2ccccc2)c1 (centres undefined)", "IC50": "Not Active"}

State the recorded IC50 for every item in the following list.
1. C[C@@H]1O[C@@H](O[C@@H]2C=C3CC[C@@H]4[C@H](CC[C@]5(C)[C@@H](c6ccc(=O)oc6)CC[C@]45O)[C@@]3(C)CC2)[C@H](O)[C@H](O)[C@H]1O
2. CCCNCC(O)COc1ccccc1C(=O)CCc1ccccc1 (centres undefined)
3. CC(C)NCC(O)COc1cccc2[nH]ccc12 (centres undefined)
4. COC(=O)CCc1ccc(OCC(O)CNC(C)C)cc1 (centres undefined)

["Not Active", "Not Active", "Not Active", "Not Active"]

* * *

Biological target: 5-hydroxytryptamine receptor 1B (Rattus norvegicus, UniProt P28564); note: in other assays of this panel Not Active means under 50% inhibition at 10 µM
Sequence (P28564 whole entry): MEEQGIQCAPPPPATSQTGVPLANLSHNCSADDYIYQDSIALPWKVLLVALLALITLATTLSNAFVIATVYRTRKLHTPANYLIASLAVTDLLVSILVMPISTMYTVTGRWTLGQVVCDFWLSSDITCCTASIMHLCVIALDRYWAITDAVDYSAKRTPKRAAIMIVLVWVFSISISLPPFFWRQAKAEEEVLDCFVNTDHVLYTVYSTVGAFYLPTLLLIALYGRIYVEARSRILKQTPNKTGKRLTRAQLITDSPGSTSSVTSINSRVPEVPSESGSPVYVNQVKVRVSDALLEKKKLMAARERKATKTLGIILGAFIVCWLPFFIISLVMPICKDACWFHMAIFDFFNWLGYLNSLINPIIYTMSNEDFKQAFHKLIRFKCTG
Format: cell membranes, Wistar, Cerebral cortex, Membrane
Conditions: read-out: Ki
Answer each item with its documented pKi.
One number for each entry, as −log10 of the molar value.

Reference set (2 entries):
{"Compound": "CO[C@@H]1[C@@H](OC)[C@H](C)[C@@](O)(CC(=O)O)O[C@H]1[C@H](C)[C@H]1O[C@@]2(CC[C@@](C)([C@H]3CC[C@@](C)([C@@H]4O[C@@H]([C@H]5O[C@](C)(O)[C@H](C)C[C@@H]5C)C[C@@H]4O[C@@H]4C[C@H](OC)[C@@H](OC)[C@H](C)O4)O3)O2)C[C@H](O)[C@H]1C", "Property Measured": "pKi", "Experimental Result": 8.87}
{"Compound": "C[C@@H](CO)NC(=O)[C@@H]1C=C2c3cccc4[nH]cc(c34)C[C@H]2N(C)C1", "Property Measured": "pKi", "Experimental Result": 8.89}

Field: next compound
Consider the compound Clc1ccc(COC(Cn2ccnc2)c2ccc(Cl)cc2Cl)cc1 (stereo not drawn) and give its measured pKi.
5.00

* * *

Assay: DRUGMATRIX: Phorbol Ester radioligand binding (ligand: [3H] PDBu)
Type: cell membranes, Mus musculus, ICR, Brain, Membrane
Conditions: Not Active = under 50% inhibition at 10 µM
Property Measured: IC50

The examples below pair each entry with its known result.
{"Compound": "CCCCOc1cc(CC2CNC(=O)N2)ccc1OC (centres undefined) [RO-201724]", "IC50": "Not Active"}
{"Compound": "CN/C(=N\\CCSCc1nc[nH]c1C)NC#N [CIMETIDINE]", "IC50": "Not Active"}
{"Compound": "Nc1ccn([C@@H]2O[C@H](CO)[C@@H](O)C2(F)F)c(=O)n1 [GEMCITABINE]", "IC50": "Not Active"}
{"Compound": "CC(c1cc2ccccc2s1)N(O)C(N)=O (centres undefined) [ZILEUTON]", "IC50": "Not Active"}
{"Compound": "CC(=O)Oc1ccc(C(c2ccc(OC(C)=O)cc2)c2ccccn2)cc1 [BISACODYL]", "IC50": "Not Active"}

List IC50 for every entry below, keeping the order given.
1. NNc1nncc2ccccc12 [HYDRALAZINE]
2. CC(C)NCC(O)COc1cccc2[nH]ccc12 (centres undefined) [PINDOLOL]
3. Cn1c(=O)c2[nH]cnc2n(C)c1=O.Cn1c(=O)c2[nH]cnc2n(C)c1=O.NCCN [AMINOPHYLLINE]

1. Not Active
2. Not Active
3. Not Active

* * *

Experiment: DRUGMATRIX: Calcium Channel Type L, Benzothiazepine radioligand binding (ligand: [3H] Diltiazem)
Assay type: cell membranes, Rattus norvegicus, Wistar, Brain, Membrane
Conditions: Not Active = under 50% inhibition at 10 µM
Property Measured: Ki

Solved entries (count: 4):
{"Compound": "O=C1C(CC[S+]([O-])c2ccccc2)C(=O)N(c2ccccc2)N1c1ccccc1 (centres undefined)", "Experimental Result": "Not Active"}
{"Compound": "Nc1ccn([C@@H]2O[C@H](CO)[C@@H](O)[C@@H]2O)c(=O)n1", "Experimental Result": "Not Active"}
{"Compound": "Clc1ccccc1CN1CCc2sccc2C1", "Experimental Result": "Not Active"}
{"Compound": "Oc1cccc(O)c1O", "Experimental Result": "Not Active"}

Hi team, please reply with Ki for each item in this list.
1. C[C@]12C=CC(=O)C=C1CC[C@@H]1[C@@H]2[C@@H](O)C[C@@]2(C)[C@H]1CC[C@]2(O)C(=O)CO
2. NCCCC(O)(P(=O)(O)O)P(=O)(O)O
3. O=C/C=C/c1ccccc1
4. NC(=O)C[S+]([O-])C(c1ccccc1)c1ccccc1 (centres undefined)

Not Active
Not Active
Not Active
Not Active

Ki lookup needed for COc1ccc2c3c1O[C@H]1C[C@@H](O)C=C[C@@]31CCN(C)C2 , thanks.
Not Active

* * *

Target: UniProt P04035
Sequence (P04035 whole entry): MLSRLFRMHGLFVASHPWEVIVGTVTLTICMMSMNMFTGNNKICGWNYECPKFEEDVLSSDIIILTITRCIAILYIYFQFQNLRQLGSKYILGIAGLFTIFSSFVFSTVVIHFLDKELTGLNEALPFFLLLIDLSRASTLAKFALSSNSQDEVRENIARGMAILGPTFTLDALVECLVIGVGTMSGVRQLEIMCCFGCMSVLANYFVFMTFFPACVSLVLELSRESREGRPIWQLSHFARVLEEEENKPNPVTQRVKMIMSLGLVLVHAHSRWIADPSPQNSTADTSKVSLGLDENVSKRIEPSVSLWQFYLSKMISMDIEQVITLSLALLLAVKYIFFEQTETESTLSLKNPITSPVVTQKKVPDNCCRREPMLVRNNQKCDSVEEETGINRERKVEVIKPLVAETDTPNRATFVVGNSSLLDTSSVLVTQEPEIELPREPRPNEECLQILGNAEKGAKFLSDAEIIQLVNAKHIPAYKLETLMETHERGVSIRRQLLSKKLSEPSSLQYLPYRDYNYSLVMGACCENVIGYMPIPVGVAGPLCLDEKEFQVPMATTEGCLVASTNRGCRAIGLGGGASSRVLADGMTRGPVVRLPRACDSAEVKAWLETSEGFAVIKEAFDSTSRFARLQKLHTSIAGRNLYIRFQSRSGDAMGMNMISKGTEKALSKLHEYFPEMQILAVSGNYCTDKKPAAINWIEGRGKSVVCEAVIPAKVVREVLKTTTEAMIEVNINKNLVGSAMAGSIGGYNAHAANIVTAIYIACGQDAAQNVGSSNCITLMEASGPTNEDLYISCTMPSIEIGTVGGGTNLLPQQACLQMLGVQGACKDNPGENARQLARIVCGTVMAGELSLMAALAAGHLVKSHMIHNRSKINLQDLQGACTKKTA
Set-up: species or system Escherichia coli
Property Measured: IC50

Consider the following illustrative entries.
{"Compound": "O=C1O[C@H]([C@@H](O)CO)C(O)=C1O [ASCORBIC ACID]", "Experimental Result": "Not Active"}
{"Compound": "CCn1cc(C(=O)O)c(=O)c2cnc(N3CCCC3)nc21 [PIROMIDIC ACID]", "Experimental Result": "Not Active"}
{"Compound": "CO[C@@H]1[C@@H](OC)[C@H](C)[C@@](O)(CC(=O)O)O[C@H]1[C@H](C)[C@H]1O[C@@]2(CC[C@@](C)([C@H]3CC[C@@](C)([C@@H]4O[C@@H]([C@H]5O[C@](C)(O)[C@H](C)C[C@@H]5C)C[C@@H]4O[C@@H]4C[C@H](OC)[C@@H](OC)[C@H](C)O4)O3)O2)C[C@H](O)[C@H]1C [MADURAMICIN ACID]", "Experimental Result": "Not Active"}
{"Compound": "O=C(Oc1ccccc1C(=O)O)c1ccccc1O [SALSALATE]", "Experimental Result": "Not Active"}
{"Compound": "CN/C(=N\\CCSCc1nc[nH]c1C)NC#N [CIMETIDINE]", "Experimental Result": "Not Active"}

Please go through the list and note IC50 for each compound.
1. Oc1cccc(O)c1O [PYROGALLOL]
2. CC(C)NCC(O)COc1cccc2[nH]ccc12 (configuration not stated) [PINDOLOL]
3. CC(C)Oc1ccc2c(=O)c(-c3ccccc3)coc2c1 [IPRIFLAVONE]
4. N=C(N)NC(=O)Cc1c(Cl)cccc1Cl [GUANFACINE]
5. CCC1(CCC(C)C)C(=O)NC(=O)NC1=O [AMOBARBITAL]
6. CCCCNc1ccc(C(=O)OCCN(C)C)cc1 [TETRACAINE]
7. Cc1ccc(NC(=O)c2ccc(CN3CCN(C)CC3)cc2)cc1Nc1nccc(-c2cccnc2)n1 [IMATINIB]
8. CCC(=O)O[C@]1(C(=O)CCl)[C@@H](C)C[C@H]2[C@@H]3CCC4=CC(=O)C=C[C@]4(C)[C@@]3(F)[C@@H](O)C[C@@]21C [CLOBETASOL PROPIONATE]

1: Not Active; 2: Not Active; 3: Not Active; 4: Not Active; 5: Not Active; 6: Not Active; 7: Not Active; 8: Not Active

Hello, I would appreciate it if you could give IC50 for each entry below.
1. Nc1ccc2c3c(cccc13)C(=O)NC2=O
2. CC(C)=CCC/C(C)=C/CO [GERANIOL]
3. CN1[C@@H]2CC[C@H]1C[C@@H](OC(=O)C(CO)c1ccccc1)C2 (some centres not stated) [ATROPINE]
4. C#C[C@]1(OC(C)=O)CC[C@H]2[C@@H]3CCC4=C[C@@H](OC(C)=O)CC[C@@H]4[C@H]3CC[C@@]21C [ETHYNODIOL DIACETATE]

1: Not Active; 2: Not Active; 3: Not Active; 4: Not Active
